Hello, the source for this data is ChEMBL document CHEMBL5537135, in case you need it.

Readings of MIC for the listed compounds
tested on: Staphylococcus aureus; assay: Antimicrobial activity against methicillin-resistant Staphylococcus aureus 1 assessed as inhibition of visible bacterial growth incubated for 18 hrs by broth-dilution method; type: functional
Peptide text beside a SMILES is read from it. * marks the point of attachment. X3 = CC(C)C[C@@H](CN(CC(N)=O)S(=O)(=O)c1ccc(C(F)(F)F)cc1)N*
API: value field is a number in µg/mL; no unit string.

Below: 2 compounds and their reported MIC.
C[C@@H](O)[C@H]1C(=O)N2C(C(=O)O)=C(SCCNC=N)C[C@H]12 [IMIPENEM ANHYDROUS] : 1
CC(C)C[C@@H](CN(CC(N)=O)S(=O)(=O)c1ccc(C(F)(F)F)cc1)NC(=O)[C@H](CCCCN)NC(=O)[C@H](CCCCN)NC(=O)[C@H](CC(C)C)NC(=O)[C@H](CC(C)C)NC(=O)[C@H](CCCCN)NC(=O)[C@H](CC(C)C)NC(=O)[C@@H](N)Cc1ccccc1 (H-FLKLLKK-X3) : 8

Form field: reported MIC of CC1(C)S[C@@H]2[C@H](NC(=O)[C@H](N)c3ccc(O)cc3)C(=O)N2[C@H]1C(=O)O [AMOXICILLIN]
4

* * *

tested on: Salmonella typhimurium; experiment: Antimicrobial activity against Salmonella typhimurium ATCC 14028 assessed as inhibition of visible bacterial growth incubated for 18 hrs by broth-dilution method; assay type: functional, Salmonella enterica subsp. enterica serovar Typhimurium; settings: Salmonella enterica
Numbered stars: 1 amine (or outer) side, 2 acyl side, 3 side chain; on linkers, the order of the positions; unused ones are H or OH. Square brackets hold non-standard residues; d marks the D form. Peptide text beside a SMILES is read from it. * marks the point of attachment. X6 = CC(C)C[C@@H](CN(CC(N)=O)S(=O)(=O)c1cc(C(F)(F)F)cc(C(F)(F)F)c1)N*; X2 = CC(C)C[C@H](N)CN(CC(=O)[*:2])[*:1]; X1 = O=S(=O)(c1ccc(C(F)(F)F)cc1)*
Each entry below lists one item and its recorded MIC value.
# value in µg/mL; strip the unit string

Some molecules with known MIC results, for comparison:
CN[C@H](CC(C)C)C(=O)N[C@H]1C(=O)N[C@@H](CC(N)=O)C(=O)N[C@H]2C(=O)N[C@H]3C(=O)N[C@H](C(=O)N[C@H](C(=O)O)c4cc(O)cc(O)c4-c4cc3ccc4O)[C@H](O)c3ccc(c(Cl)c3)Oc3cc2cc(c3O[C@@H]2O[C@H](CO)[C@@H](O)[C@H](O)[C@H]2O[C@H]2C[C@](C)(N)[C@H](O)[C@H](C)O2)Oc2ccc(cc2Cl)[C@H]1O : 128
CC(C)C[C@H](N)CN(CC(=O)N[C@@H](CCCCN)C(=O)N[C@@H](CC(C)C)C(=O)N[C@@H](CC(C)C)C(=O)N[C@@H](CCCCN)C(=O)N[C@@H](CCCCN)C(=O)N[C@@H](CC(C)C)C(=O)N[C@@H](CC(C)C)C(N)=O)S(=O)(=O)c1ccc(C(F)(F)F)cc1 (X1-[X2]KLLKKLL-NH2) : 8

Now for a further molecule.
Which MIC value belongs to CC(C)C[C@@H](CN(CC(N)=O)S(=O)(=O)c1cc(C(F)(F)F)cc(C(F)(F)F)c1)NC(=O)[C@H](CCCCN)NC(=O)[C@H](CCCCN)NC(=O)[C@H](CC(C)C)NC(=O)[C@H](CC(C)C)NC(=O)[C@H](CCCCN)NC(=O)[C@H](CC(C)C)NC(=O)[C@@H](N)Cc1ccccc1 (H-FLKLLKK-X6) ?
8
